assay: Cellular viability qHTS for adrenocortical cancer (ACC) cell line SW-13 (AID 1963989); conditions: SW-13 ACC cells viability, CellTiter-Glo, 48 h; stronger effect = lower value;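 note: cells grown in serum-free medium with ITS supplement; % is set by controls: 0 for no effect and ±100 for the full control effect; nearly all actives have a fitted effect of over 65% in size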
Inconclusive results are not listed.

compound | activity (max response), %
CN(C)CCCO[C@@H]1[C@H]2OC(C)(C)O[C@H]2O[C@@H]1C(O)CO (stereo not given in full) | 7.54
O=C(O)CC1CCC(c2ccc(-c3ccc(Nc4ccc(C(F)(F)F)nc4)cn3)cc2)CC1 (stereo not given) | -23.1
CCn1ccnc1CC1COc2ccccc2O1 (stereo not given) | 8.12
NCCCNCCSP(=O)(O)O | 1.65
COc1ccccc1OC(=O)Oc1ccccc1OC | 1.52
CC(=O)OC(C)C[N+](C)(C)C (stereo not given) | -1.07
CC(=O)OC[C@H]1O[C@@](COC(C)=O)(O[C@H]2O[C@H](COC(C)=O)[C@@H](OC(C)=O)[C@H](OC(C)=O)[C@H]2OC(C)=O)[C@@H](OC(C)=O)[C@@H]1OC(C)=O | 1.89
Cc1nc(-c2cccnc2)sc1C(=O)Nc1ccccc1-c1cn2c(CN3CCOCC3)csc2n1 | -5.59
Cc1ncc([N+](=O)[O-])n1CCO | -0.254
NS(=O)(=O)c1cc(C(=O)O)c(NCc2ccco2)cc1Cl | -1.8
Cc1cc2nc3c(=O)[nH]c(=O)nc-3n(C[C@H](O)[C@H](O)[C@H](O)CO)c2cc1C | 8.72
Cc1ccc2c(=O)c3cccc(CC(=O)O)c3oc2c1C | -13.4
OC[C@H]1O[C@H](O[C@]2(CCl)O[C@H](CCl)[C@@H](O)[C@@H]2O)[C@H](O)[C@@H](O)[C@H]1Cl | -4.41
C[C@H](O)C(=O)Nc1c(I)c(C(=O)NC(CO)CO)c(I)c(C(=O)NC(CO)CO)c1I | 10.3
COc1cc(NS(=O)(=O)c2ccc(N)cc2)nc(C)n1 | 1.38
Cc1ccccc1C(C(=O)NC1CCCCC1)N(C(=O)Cn1ccnc1C)c1cccc(F)c1 (stereo not given) | -14.8
CCC(=O)O[C@H]1[C@H](O[C@@H]2[C@@H](C)[C@H](O[C@H]3C[C@@](C)(OC)[C@@H](O)[C@H](C)O3)[C@@H](C)C(=O)O[C@H](CC)[C@@](C)(O)[C@H](O)[C@@H](C)C(=O)[C@H](C)C[C@@]2(C)O)O[C@H](C)C[C@@H]1N(C)C | 0.809
CCCCCN(CCC12CC3CC(CC(C3)C1)C2)C(=O)NCCCc1ccncc1 | -15.8
N[C@H](CSC(c1ccccc1)(c1ccccc1)c1ccccc1)C(=O)O | -17.5
CN1CCC(=C2c3ccccc3CCc3cccnc32)CC1 | 5.98

###

experiment: Quantitative highthroughput screen to assess conditional lethalithy of SEM cells grown in Human Plasma-Like Medium with dialyzed fetal bovine serum (HPLM+ds) (AID 1963882); details: SEM B-ALL cells in HPLM+ds, CellTiter-Glo viability, 48 h; series mostly up to 45.8 µM; note: nearly all actives have a fitted effect of over 35% in size
Results filed as inconclusive are left out. Activity calls are given as the source filed them. Calls follow the shape of the dose curve; as a rule, active = well fitted cell-killing curve with a large enough effect; inconclusive = small, poorly fitted or top-dose-only effect, or effect the other way; inactive = no such curve, though single readings can be large or run the other way.
Outcome codes: label 1 for active, label 0 for inactive

inputSmiles | groupLabel
C[C@@H]1CN(Cc2ccc(F)cc2)[C@@H](C)CN1C(=O)c1cc2c(C(=O)C(=O)N(C)C)cn(C)c2cc1Cl | label 0
CCCCc1ccc(NS(=O)(=O)c2ccc(C)c(C(=O)N3CCN(c4cccc(C)c4C)CC3)c2)cc1 | label 0
Cc1nnc(C(=O)NC(C)(C)c2nc(C(=O)NCc3ccc(F)cc3)c(O)c(=O)n2C)o1 | label 0
CN(C)C(=O)[C@H](O)[C@H](Cc1ccccc1)NC(=O)c1cc2cc(Cl)ccc2[nH]1 | label 1
C[C@H](NC(=O)C(C#N)=Cc1cccc(Br)n1)c1ccccc1 | label 1
CC(C)(C)OC(=O)N[C@H]1CCCCCC=C[C@@H]2C[C@@]2(C(=O)NS(=O)(=O)C2CC2)NC(=O)[C@@H]2C[C@@H](OC(=O)N3Cc4cccc(F)c4C3)CN2C1=O | label 0
Cc1cc2c(cc1C1(c3ccc(C(=O)O)cn3)CC1)C(C)(C)CCC2(C)C | label 0
O=C(CCc1ccc(O)cc1)c1c(O)cc(O)cc1O[C@@H]1O[C@H](CO)[C@H](O)[C@H](O)[C@H]1O | label 0

###

experiment: Cellular viability qHTS for adrenocortical cancer (ACC) cell line SW-13 (AID 1963989); details: SW-13 ACC cells viability, CellTiter-Glo, 48 h; stronger effect = lower value;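 note: cells grown in serum-free medium with ITS supplement; % is set by controls: 0 for no effect and ±100 for the full control effect; nearly all actives have a fitted effect of over 65% in size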
Inconclusive results are not listed.

compound | activity (max response) [%]
OCc1ccccc1O[C@@H]1O[C@H](CO)[C@@H](O)[C@H](O)[C@H]1O | -1.84
O=C(O)P(=O)(O)O | 10.2
CNC(=O)c1c(I)c(NC(=O)CCCCC(=O)Nc2c(I)c(C(=O)O)c(I)c(C(=O)NC)c2I)c(I)c(C(=O)O)c1I | -7.54
Cc1cccc(C)c1NC(=O)CN1CCCC1 | 3.45
CC(=O)N1C[C@H](O)C[C@H]1C(=O)O | 0.891
CC(NCCc1ccc(O)cc1)C(O)c1ccc(O)cc1 (configuration not stated) | -9.55
COc1ccccc1Oc1c(NS(=O)(=O)c2ccc(C(C)(C)C)cc2)nc(-c2ncccn2)nc1OCCO | -3.16
CCOc1ccccc1O[C@H](c1ccccc1)[C@H]1CNCCO1 | -2.45
COc1ccc(S(=O)(=O)N2c3ccc(Cl)cc3[C@@](O)(c3ccccc3Cl)[C@H]2C(=O)N2CCC[C@@H]2C(N)=O)cc1OC | -24.3
CCC(C(=O)OCCOCCN(CC)CC)c1ccccc1 (configuration not stated) | -6.83
CN[C@@H](C)[C@H]1[C@H](O)C[C@@]2(C)[C@@H]3CC[C@H]4C(C)(C)[C@@H](NC)CC[C@@]45C[C@@]35CC[C@]12C | -3.37
CCCc1c(OCCCCc2nn[nH]n2)ccc(C(C)=O)c1O | -4.43
O=C(O)[C@@H](O)[C@H](O)[C@H](O)[C@@H](O)C(=O)O | 9.05
Cc1cccc(C(=O)O)c1O | 14.1
Clc1ccc(C(c2ccccc2Cl)C(Cl)Cl)cc1 (configuration not stated) | -27.3
N#C[C@@H]1C[C@@H]2C[C@@H]2N1C(=O)[C@@H](N)C12CC3CC(CC(O)(C3)C1)C2 | 7.26
OC(C#CCN1CCCC1)(c1ccccc1)c1ccccc1 | -0.545
COc1cc(-c2cn(C)c(=O)c3cnccc23)c(OC)cc1CN(C)C | 19.4
Cc1c(F)c(N2CCNC(C)C2)cc2c1c(=O)c(C(=O)O)cn2C1CC1 (configuration not stated) | -0.964
CCCCCCCCCCCCCCCC(=O)NCCO | 3.88
Cc1nc2cccc(N)c2c(=O)n1C1CCC(=O)NC1=O (configuration not stated) | 3.79
C[C@@H](C1=C(CCN(C)C)Cc2ccccc21)c1ccccn1 | -0.59

###

test: Cellular viability qHTS for adrenocortical cancer (ACC) cell line NCI-H295R (AID 1963990); settings: CellTiter-Glo ATP luminescence, 48 h; series mostly up to 46.1 µM; note: nearly all actives have a fitted effect of over 60% in size
Records with an inconclusive call do not appear. Activity calls are given as the source filed them. Calls follow the shape of the dose curve; as a rule, active = well fitted cell-killing curve with a large enough effect; inconclusive = small, poorly fitted or top-dose-only effect; inactive = flat fitted curve, though single readings scatter.
Outcome codes: active, inactive

molecule | groupLabel
Nc1nc2[nH]cc(CCc3ccc(C(=O)N[C@@H](CCC(=O)O)C(=O)O)cc3)c2c(=O)[nH]1 | active
C[C@@H](c1ncncc1F)[C@](O)(Cn1cncn1)c1ccc(F)cc1F | inactive
CCN(CC)CCNC(=O)c1cc(S(C)(=O)=O)ccc1OC | inactive
O=[N+]([O-])c1cn2c(n1)OC[C@@H](OCc1ccc(OC(F)(F)F)cc1)C2 | inactive
CCC1NC(=O)c2cc(S(N)(=O)=O)c(Cl)cc2N1 (stereo not given) | inactive

###

test: Quantitative highthroughput screen to assess conditional lethalithy of NOMO1 cells grown in RPMI1640 with dialyzed fetal bovine serum (RPMI+ds) (AID 1963877); conditions: NOMO1 in RPMI+dialyzed FBS viability, ATP luminescence, 48 h; series mostly up to 45.8 µM; note: nearly all actives have a fitted effect of over 30% in size;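 for viability: 100% = DMSO control wells and 0% = empty wells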
Records with an inconclusive call do not appear. Active and inactive are the calls of the source. The call rests on the fitted dose curve; in most records, active means well fitted cell-killing curve with a large enough effect; inconclusive means small, poorly fitted or top-dose-only effect; inactive means flat fitted curve, though single readings scatter.
Outcome codes: true for active, false for inactive

compound | groupLabel
COc1ccc(-c2nc3ccc(C4=NNC(=O)CC4C)cc3[nH]2)cc1 (configuration not stated) | false
Nc1cc(C(F)(F)F)c(-c2cc(N3CCOCC3)nc(N3CCOCC3)n2)cn1 | true
CCc1cc(C(N)=S)ccn1 | false
CC(C)(C)c1cnc(CSc2cnc(NC(=O)C3CCNCC3)s2)o1 | true
Cc1noc(-c2ccc(CSCCC(=O)O)cc2)c1NC(=O)OC(C)c1ccccc1Cl (configuration not stated) | false
C[C@H]1Oc2cc(cnc2N)-c2c(nn(C)c2C#N)CN(C)C(=O)c2ccc(F)cc21 | false
CC[C@@H]1C(=O)N(C)c2cnc(Nc3ccc(C(=O)NC4CCC(N5CCN(CC6CC6)CC5)CC4)cc3OC)nc2N1C(C)C (some centres not stated) | true
CCOC(=O)c1ccc(OC(=O)CCCCCN=C(N)N)cc1 | true
COc1ccc(CCC(=O)Nc2nc3ccc(Cl)cc3s2)cc1OC | false
Cc1cc(NC(=O)Nc2ccc(N(C)C)cc2)c2cc(F)cc(F)c2n1 | false
Cc1nc(C(=O)NCC(=O)O)c(O)c2ccc(Oc3ccccc3)cc12 | false
O=C(c1ccc(OCCN2CCCCC2)cc1)c1c(-c2ccc(O)cc2)sc2cc(O)ccc12 | false
COc1cccc(N(C)C(=S)Oc2ccc3c(c2)CCCC3)n1 | false
CC(C=CC1=C(C)CCCC1(C)C)=CC=CC(C)=CC(=O)Nc1ccc(O)cc1 | true
S=c1nc[nH]c2nc[nH]c12 | true
O=C1CCC[C@@H]2[C@H]3CCC[N+]4([O-])CCC[C@@H](CN12)[C@@H]34 (some centres not stated) | true
CC(=O)CC(c1ccccc1)c1c(O)c2ccccc2oc1=O (configuration not stated) | false
CC1Cc2ccccc2N1NC(=O)c1ccc(Cl)c(S(N)(=O)=O)c1 (configuration not stated) | false
Cn1cc(C[C@@H](N)C(=O)O)c2ccccc21 | false
COC1CCC(C(=O)c2ccc3nc4c(cc3c2)CCCO4)CC1 (configuration not stated) | true
Nc1ccccc1NC(=O)c1ccc(CNC(=O)OCc2cccnc2)cc1 | true
CN(Cc1cc(Br)cc(Br)c1N)C1CCCCC1 | false
